- Test system: SC27B
- protocol details: qHTS profiling for inhibitors of Plasmodium falciparum proliferation (AID 504749); also: nearly all actives have a fitted effect of over 60% in size
- condition parameters: P. falciparum in erythrocytes, SYBR Green DNA, 72 h; series mostly up to 28.7 µM
- Protocol: NIH National Institute of Allergy and Infectious Diseases [NIAID] NIH Chemical Genomics Center [NCGC] […] Because mature erythrocytes lack DNA, only Plasmodium-derived DNA is detected. NCGC Assay Protocol Summary: The SYBR Green viability assay was adapted from a method described previously (Plouffe et al., 2008). […] The following morning, fluorescence intensity at 485(14) nm excitation and 535(25) nm emission wavelengths was measured on an EnVision (Perkin Elmer) plate reader. […]
Records with an inconclusive call do not appear. Active and inactive are the calls of the source. Calls follow the shape of the dose curve; as a rule, active = well fitted inhibition curve with a large enough effect; inconclusive = small, poorly fitted or top-dose-only effect; inactive = flat fitted curve, though single readings scatter.
Your answer must be one of the following: active, inactive

>>> cat("C[C@@H](O)[C@@H]1C(=O)N2C(C(=O)O)=C([C@H]3CCCO3)S[C@H]12")
"inactive"
>>> cat("OCC1O[C@H](O[C@H]2C(O)C(O)C(O)O[C@@H]2CO)C(O)C(O)C1O (some centres not stated)")
"inactive"
>>> cat("CC(=O)C1(O)Cc2c(O)c3c(c(O)c2C(OC2CC(N)C(O)C(C)O2)C1)C(=O)c1c(O)cccc1C3=O (configuration not stated)")
"active"
>>> cat("OCC1O[C@H](Oc2ccc(O)cc2)C(O)C(O)C1O (some centres not stated)")
"inactive"
>>> cat("C=C1CC2C3C=C(C)C4=CC(=O)CCC4(C)C3CCC2(C)[C@@]1(OC(C)=O)C(C)=O (some centres not stated)")
"inactive"

INPUT: Fill in: this test's call for CCCCC(=O)OCC(=O)[C@]1(O)Cc2c(O)c3c(c(O)c2[C@H](OC2CC(NC(=O)C(F)(F)F)C(O)C(C)O2)C1)C(=O)c1c(OC)cccc1C3=O (some centres not stated) is ___
OUTPUT: active

INPUT: What was the test verdict on "CC[C@@H]1/C=C(\C)C[C@H](C)C[C@H](OC)[C@H]2O[C@@](O)(C(=O)C(=O)N3CCCC[C@H]3C(=O)O[C@H](/C(C)=C/[C@@H]3CC[C@H](Cl)[C@H](OC)C3)[C@H](C)[C@@H](O)CC1=O)[C@H](C)C[C@@H]2OC" ?
OUTPUT: inactive

INPUT: Query: recorded result category for C[C@@H]1CC2C3CCC4=CC(=O)C=C[C@]4(C)[C@@]3(F)[C@@H](O)C[C@]2(C)[C@@]1(O)C(=O)COC(=O)c1cccc(S(=O)(=O)O)c1 (some centres not stated) in this test
OUTPUT: inactive

---

- Test system: DIV14
- protocol details: qHTS profiling for inhibitors of Plasmodium falciparum proliferation (AID 504749); also: nearly all actives have a fitted effect of over 60% in size
- condition parameters: P. falciparum in erythrocytes, SYBR Green DNA, 72 h; series mostly up to 28.7 µM
Records with an inconclusive call do not appear. Active and inactive are the calls of the source. The call rests on the fitted dose curve; in most records, active means well fitted inhibition curve with a large enough effect; inconclusive means small, poorly fitted or top-dose-only effect; inactive means flat fitted curve, though single readings scatter.
Classes to choose from: active, inactive

>>> cat("CC(C)C(=O)OCC(=O)[C@@]12OC(C3CCCCC3)O[C@@H]1CC1C3CCC4=CC(=O)C=C[C@]4(C)C3[C@@H](O)C[C@@]12C (stereo partly specified)")
"active"
>>> cat("C=C1C(=O)O[C@@H]2[C@@H]1CC/C(C)=C\\CC[C@@]1(C)O[C@H]21")
"inactive"
>>> cat("CO[C@H]1C[C@@H]2CC[C@@H](C)[C@@](O)(O2)C(=O)C(=O)N2CCCC[C@H]2C(=O)O[C@H]([C@H](C)C[C@@H]2CC[C@@H](O)[C@H](OC)C2)CC(=O)[C@H](C)/C=C(\\C)[C@@H](O)[C@@H](OC)C(=O)[C@H](C)C[C@H](C)/C=C/C=C/C=C/1C")
"active"
>>> cat("Cc1cnc(NC(=O)C2C(=O)c3ccccc3S(=O)(=O)N2C)s1 (stereo unspecified)")
"inactive"
>>> cat("CNC1=CN(O)C(c2ccccc2)=c2cc(Cl)ccc2=N1")
"active"

INPUT: How did this test come out for C[N+]12CCCC[C@@H]1CCC(=C(c1cccs1)c1cccs1)C2 (stereo partly specified) ?
OUTPUT: active
